PROTOCOL_NOTES: compounds altering HSF1 focus formation in cells – imaging, Selleck Cancer Library (AID 1347162)
EXPERIMENTAL_CONDITIONS: human cells, HSF1 nuclear foci imaging, at 10 µM; hits give low values
# if measured plate-normalised HSF1 focus index < 1: Yes  # else: No

COMPOUND	GROUP_LABEL
CCC[C@H](NC(=O)/C(C#N)=C/c1cccc(Br)n1)c1ccccc1	Yes
Cc1[nH]c2ccccc2c1CCNCc1ccc(/C=C/C(=O)NO)cc1	Yes
C[C@@H](Oc1cc(-n2cnc3ccc(CN4CCN(C)CC4)cc32)sc1C(N)=O)c1ccccc1C(F)(F)F	No
CCOc1cc(/C=C2/C(=O)N(c3ccccc3)N=C2C)cc(Cl)c1OCC(=O)OC	No
CC[C@]1(O)C[C@@H]2CN(CCc3c([nH]c4ccccc34)[C@@](C(=O)OC)(c3cc4c(cc3OC)N(C=O)[C@@H]3C45CCN4CC=C[C@](CC)([C@H]45)[C@@H](OC(C)=O)[C@]3(O)C(=O)OC)C2)C1 (some centres undefined)	No
Nc1nc2[nH]cc(CCc3ccc(C(=O)N[C@@H](CCC(=O)O)C(=O)O)cc3)c2c(=O)[nH]1	Yes
NC(=O)c1ccc2nc(-c3ccc(Oc4ccc(Cl)cc4)cc3)[nH]c2c1	No
CN(C)CC[C@H](CSc1ccccc1)Nc1ccc(S(=O)(=O)NC(=O)c2ccc(N3CCN(Cc4ccccc4-c4ccc(Cl)cc4)CC3)cc2)cc1[N+](=O)[O-]	Yes
COc1cc(N2CCC(N3CCN(C)CC3)CC2)ccc1Nc1ncc(Cl)c(Nc2ccccc2S(=O)(=O)C(C)C)n1	No
CC(C)CC(=O)Nc1n[nH]c2c1CN(C(=O)C1CCN(C)CC1)C2(C)C	Yes
O=C(O)CCC1CCC(c2cc(F)ccc2F)(S(=O)(=O)c2ccc(Cl)cc2)CC1 (centres undefined)	No
Cn1cc(-c2ccc3nnc(Sc4ccc5ncccc5c4)n3n2)cn1	No
O=C(Nc1ccccc1-c1cn2c(CN3CCNCC3)csc2n1)c1cnc2ccccc2n1	Yes
N#CC[C@H](C1CCCC1)n1cc(-c2ncnc3[nH]ccc23)cn1	No
CCCCCCCCc1ccc(CCC(N)(CO)CO)cc1	Yes
CC(C)=CCC/C(C)=C/CC/C(C)=C/CSc1ccccc1C(=O)O	No
CCc1cc(-c2n[nH]c(C)c2-c2ccc3c(c2)OCCO3)c(O)cc1O	No
COc1ccc(/C=C\c2cc(OC)c(OC)c(OC)c2)cc1O	No

---

PROTOCOL_NOTES: drug combination growth inhibition, ovarian cancer – cell-based, oncology-focused library, rucaparib conditional, profiling panel (AID 1508598)
EXPERIMENTAL_CONDITIONS: patient-derived ovarian cancer cells, CellTiter-Glo viability, 144 h; at 0.000305 µM; OCI-C5x cells; without rucaparib; hits give low values
Reported values of viability for individual entries

COMPOUND	viability (%)
NC(=O)C1CCCc2c1[nH]c1ccc(Cl)cc21 (stereo not drawn)	113
CC(C)c1cc(-c2n[nH]c(=O)n2-c2ccc3c(ccn3C)c2)c(O)cc1O	108
COc1ccc(C2=NC(c3ccc(Cl)cc3)C(c3ccc(Cl)cc3)N2C(=O)N2CCNC(=O)C2)c(OC(C)C)c1 (stereo not drawn)	129
Cc1cc(CS(=O)(=O)c2ccccc2)cc(OCc2ccc(CN3CCC[C@@H]3CO)cc2)c1	109
COc1ccc2cc(-c3nc(-c4ccc(S(C)=O)cc4)[nH]c3-c3ccncc3)ccc2c1 (stereo not drawn)	102
CC(=O)Nc1cccc(-n2c(=O)n(C3CC3)c(=O)c3c(Nc4ccc(I)cc4F)n(C)c(=O)c(C)c32)c1	120
Nc1ccc(C(=O)Nc2cccc(-c3nc(N4CCOCC4)c4oc5ncccc5c4n3)c2)cn1	111
N#Cc1c(NC(=O)c2cccc3ccccc23)sc2c1CCCC2	105
COC(=O)c1ccc2c(C(=Nc3ccc(N(C)C(=O)CN4CCN(C)CC4)cc3)c3ccccc3)c(O)[nH]c2c1	127
O=S(=O)(O)CCSSCCS(=O)(=O)O	108
CCN(CC)CCCCNc1ncc2cc(-c3cc(OC)cc(OC)c3)c(NC(=O)NC(C)(C)C)nc2n1	103
O=C(O)c1ccc(O)c2ncccc12	117
COC(=O)Nc1ccc(-c2nc(N3CCOCC3)c3cnn(C4CCN(C(=O)OC)CC4)c3n2)cc1	105
O=c1cc(N2CCOCC2)oc2c(-c3cccc4c3sc3ccccc34)cccc12	106
COc1ccc(S(=O)(=O)Nc2cccnc2Nc2ccc(O)cc2)cc1	122
O=C(O)c1ccc2c(c1)nc(Nc1cccc(Cl)c1)c1ccncc12	125
COc1ccc(COc2cc3oc(=O)c4cc(C(C)O)ccc4c3cc2OC)cc1 (stereo not drawn)	122
CN[C@H]1CN(c2ccc3c(=O)c(C(=O)O)cn(-c4nccs4)c3n2)C[C@@H]1OC	108
C[C@@H]1CN(CC(=O)Nc2ccc3c(c2)Cc2cccc(-c4cc(=O)cc(N5CCOCC5)o4)c2S3)C[C@H](C)O1	116
Nc1ccc(-c2ccc3ncc4ccc(=O)n(-c5cccc(C(F)(F)F)c5)c4c3c2)cn1	112
O=C(Nc1ccccc1-c1cn2c(CN3CCNCC3)csc2n1)c1cnc2ccccc2n1	114
COc1cc2nccc(Oc3ccc(NC(=O)Nc4cc(C)on4)c(Cl)c3)c2cc1OC	105
O=C(Nc1ccc(OC(F)(F)F)cc1)c1sccc1NCc1ccnc2ccccc12	102
Cc1cnc(NC(=O)Nc2cc(Br)c(C)cc2OC[C@@H]2CNCCO2)cn1	118
CNC(=O)c1cc(Oc2ccc(NC(=O)Nc3ccc(Cl)c(C(F)(F)F)c3)c(F)c2)ccn1	90.4
CC1(C)CNc2cc(NC(=O)c3cccnc3NCc3ccncc3)ccc21	126
O=C(CCCCCCC(=O)Nc1ccc([C@H]2O[C@@H](CSc3nc(-c4ccccc4)c(-c4ccccc4)o3)C[C@@H](c3ccc(CO)cc3)O2)cc1)NO	141
CC1(O)CC(c2nc(-c3ccc4ccc(-c5ccccc5)nc4c3)c3c(N)nccn23)C1 (stereo not drawn)	139
Cn1cnc(=N)c2[nH]cnc21	111
COc1nc(C)cnc1NS(=O)(=O)c1cccnc1-c1ccc(-c2nnco2)cc1	112
O=C(Nc1cccc(Cl)c1)Nc1ncc(CCNc2ncnc3ccsc23)s1	107
CN1CCN(c2nc(C3=C(c4c[nH]c5ccccc45)C(=O)NC3=O)c3ccccc3n2)CC1	102
C=CC(=O)Nc1cccc(Oc2nc(Nc3ccc(N4CCN(C)CC4)cc3OC)ncc2Cl)c1	104
CC1(C)CCC(c2ccc(Cl)cc2)=C(CN2CCN(c3ccc(C(=O)NS(=O)(=O)c4ccc(N[C@H](CCN5CCOCC5)CSc5ccccc5)c(S(=O)(=O)C(F)(F)F)c4)cc3)CC2)C1	78.4
Cn1cc(CNCC2CCN(c3ncc(C(=O)NO)cn3)CC2)c2ccccc21	118
Oc1cccc(-c2nc(N3CCOCC3)c3oc4ncccc4c3n2)c1	110
Cc1cc(N2CCOCC2)cc2[nH]c(-c3c(NC[C@@H](O)c4cccc(Cl)c4)cc[nH]c3=O)nc12	119
CN(C)Cc1ccc(-c2nc3cccc4c3n2CCNC4=O)cc1	127
